- Test system: U87 (glioblastoma)
- procedure_text: alamarBlue viability assay, U87
- Assay type: cell-based
- experimental_conditions: 72 hours
Consider the following compounds; for each one, report its EC50.
Note: state the figure and append the unit.

Cc1ccc(NS(=O)(=O)c2cccc(CCCC(CCc3ccccc3)C(=O)O)c2)cc1 (centres unmarked) ... 105 µM

Now examine the next entry.
Input CCc1ccc(CCC(CCCc2ccc(S(=O)(=O)Nc3ccccc3)cc2)C(=O)O)cc1 (centres unmarked) . Output EC50: 43 µM

###

- target_of_assay: human recombinant HDAC 8 (Homo sapiens)
- Sequence (Q9BY41 whole entry): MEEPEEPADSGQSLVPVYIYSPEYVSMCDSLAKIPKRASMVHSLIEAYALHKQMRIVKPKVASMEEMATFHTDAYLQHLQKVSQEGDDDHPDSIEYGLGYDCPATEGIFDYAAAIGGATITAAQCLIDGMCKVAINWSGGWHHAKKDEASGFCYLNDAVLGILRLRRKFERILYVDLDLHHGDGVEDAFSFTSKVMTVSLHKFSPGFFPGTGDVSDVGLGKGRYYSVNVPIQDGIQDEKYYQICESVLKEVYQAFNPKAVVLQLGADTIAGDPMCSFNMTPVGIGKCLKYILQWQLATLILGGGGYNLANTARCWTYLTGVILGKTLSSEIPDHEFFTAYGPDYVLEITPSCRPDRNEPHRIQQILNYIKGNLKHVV
- procedure_text: HDAC inhibition assay (Fluor de Lys), HDAC8
- experimental_conditions: inhibitor-protein incubation 0 hours, reaction 3 hours, 37° C.
Consider the following compounds; for each one, report its IC50.

O=C(O)C(CCc1ccccc1)Cc1ccccc1 (stereo not drawn) [Example 9, 2-Benzyl-4-phenylbutanoic acid] ... 100 to 1000 µM
Cc1ccc(NS(=O)(=O)c2cccc(C#CCC(CCc3ccccc3)C(=O)O)c2)cc1 (stereo not drawn) [Example 38] ... 10 to 100 µM
O=C(O)C(CCCc1cccc(S(=O)(=O)Nc2ccccc2)c1)CCc1ccccc1 (stereo not drawn) [Example 39] ... 100 to 1000 µM
CNS(=O)(=O)c1ccc(CCCC(CCc2ccccc2)C(=O)O)s1 (stereo not drawn) [Example 26] ... 100 to 1000 µM
CNS(=O)(=O)c1ccc(CC(CCc2ccccc2)C(=O)O)cc1 (stereo not drawn) [Example 12] ... 100 to 1000 µM

# return IC50 for each item in the list
1. O=C(O)C(C/C=C/c1ccccc1)CCc1ccccc1 (stereo not drawn) [Example 21]
2. CNS(=O)(=O)c1cccc(CCCC(CCc2ccccc2)C(=O)O)c1 (stereo not drawn) [Example 41]

Key:
1: 10 to 100 µM; 2: 10 to 100 µM

# return IC50 for each item in the list
1. CCCC(CCc1ccccc1)C(=O)O (stereo not drawn) [Example 7, 2-(2-Phenylethyl)pentanoic acid]
2. O=C(O)C(CCCc1ccccc1)CCc1ccccn1 (stereo not drawn) [Example 28]

Key:
["10 to 100 µM", "100 to 1000 µM"]

###

- target_of_assay: human recombinant HDAC 2 (Homo sapiens, UniProt Q92769)
- Sequence (Q92769 whole entry): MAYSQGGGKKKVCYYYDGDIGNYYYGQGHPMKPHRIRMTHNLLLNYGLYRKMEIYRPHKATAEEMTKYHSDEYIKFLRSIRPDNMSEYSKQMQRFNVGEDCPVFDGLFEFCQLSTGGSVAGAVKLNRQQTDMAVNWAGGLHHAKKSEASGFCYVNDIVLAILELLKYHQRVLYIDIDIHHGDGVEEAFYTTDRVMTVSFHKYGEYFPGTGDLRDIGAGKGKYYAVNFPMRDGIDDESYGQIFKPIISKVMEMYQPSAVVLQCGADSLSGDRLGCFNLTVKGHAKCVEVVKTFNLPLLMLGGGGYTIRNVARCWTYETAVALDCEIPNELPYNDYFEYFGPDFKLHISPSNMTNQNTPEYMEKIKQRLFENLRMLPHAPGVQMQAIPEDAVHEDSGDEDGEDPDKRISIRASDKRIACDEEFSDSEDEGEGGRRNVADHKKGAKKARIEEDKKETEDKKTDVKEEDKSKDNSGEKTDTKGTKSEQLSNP
- procedure_text: HDAC inhibition assay (Fluor de Lys), HDAC2
- experimental_conditions: inhibitor-protein incubation 2 hours, reaction 1 h 30 min, 37° C.
- Procedure: All assays were carried out in the assay buffer: 50 mM Tris/Cl, pH 8.0, 137 mM NaCl, 2.7 mM KCl, 1 mM MgCl2). Reactions were carried out in a 96-wells microplate (Corning 96 well Flat Bottom Non-binding surface (black) ref. 3651). […] Reactions were stopped with 50 μl Developer (KI-105 Fluor de Lys™, BIOMOL®) with 2 μmol/L trichostatin A (TSA, final concentration 1 μmol/L). […] Background was determined in reactions using substrate in the absence of enzyme. […]
pIC50: −log10 of the molar value.
Consider the following compounds; for each one, report its pIC50.

CC(=O)Nc1ccc(CCC(CCCc2ccccc2)C(=O)O)cc1 (stereo not drawn) ... 3.00 to 4.00
N#Cc1cccc(Oc2ccc(CCC(CCCc3ccccc3)C(=O)O)cc2)c1 (stereo not drawn) ... 4.00 to 5.00

# return pIC50 for each item in the list
1. O=C(O)C(CCCc1ccccc1)CCc1ccc(OCc2cccnc2)cc1 (stereo not drawn)
2. O=C(O)C(CCCc1ccc2ccccc2c1)CCc1ccccc1 (stereo not drawn)
3. COc1cccc(CCC(CCCc2ccccc2)C(=O)O)c1 (stereo not drawn)
4. Cc1ccc(NS(=O)(=O)c2cccc(C#CCC(CCc3ccccc3)C(=O)O)c2)cc1 (stereo not drawn)
5. CCCC(CCCc1ccccc1)C(=O)O (stereo not drawn)
6. O=C(O)C(CCCc1ccccc1)CCc1ccc(O)cc1 (stereo not drawn)
7. O=C(O)C(CCCc1ccccc1)CCc1ccc(OCc2ccccn2)cc1 (stereo not drawn)

Key:
1. 4.00 to 5.00
2. 3.00 to 4.00
3. 3.00 to 4.00
4. 3.00 to 4.00
5. 3.00 to 4.00
6. 3.00 to 4.00
7. 4.00 to 5.00

###

- target_of_assay: human recombinant HDAC 2 (Homo sapiens, UniProt Q92769)
- procedure_text: HDAC inhibition assay (Fluor de Lys), HDAC2
- experimental_conditions: inhibitor-protein incubation 2 hours, reaction 1 h 30 min, 37° C.
Consider the following compounds; for each one, report its IC50.

// worked examples, IC50 included
CCc1ccc(CCC(CCCc2ccccc2)C(=O)O)cc1 (stereo not drawn) ... 10 to 100 µM
Cc1ccc(NS(=O)(=O)c2cccc(CCCC(CCCc3ccccc3)C(=O)O)c2)cc1 (stereo not drawn) ... 10 to 100 µM
O=C(O)C(C/C=C/c1ccccc1)CCc1ccccc1 (stereo not drawn) ... 100 to 1000 µM
Cc1ccc(S(=O)(=O)Nc2cccc(CCCC(CCc3ccccc3)C(=O)O)c2)cc1 (stereo not drawn) ... 10 to 100 µM
CCc1ccc(CCC(CCCc2cccc(NC(=O)c3ccc(N(C)C)cc3)c2)C(=O)O)cc1 (stereo not drawn) ... 100 to 1000 µM
O=C(O)C(CCc1ccccc1)SCCc1ccccc1 (stereo not drawn) ... 100 to 1000 µM

# return IC50 for each item in the list
1. N#Cc1ccc(Oc2ccc(CCC(CCCc3ccccc3)C(=O)O)cc2)cc1 (stereo not drawn)
2. O=C(O)C(CCCc1ccccc1)CCc1ccc(-c2ccoc2)cc1 (stereo not drawn)
3. O=C(O)C(CCCc1ccccc1)CCc1ccc(-c2cccs2)cc1 (stereo not drawn)

Key:
10 to 100 µM
10 to 100 µM
10 to 100 µM

###

- Tested on: MDA-MB-435P (breast)
- procedure_text: alamarBlue viability assay, MDA-MB-435P
- Type: cell-based
- experimental_conditions: 72 hours
Cut-off 200 µM on EC50: below means Criterion met, at or above means Criterion not met.

Solved entries (count: 3):
O=C(O)C(CCc1ccccc1)Cc1ccccc1 (stereo not shown) ... Criterion not met
O=C(O)C(CCCc1ccccc1)CCc1ccccc1 (stereo not shown) ... Criterion not met
CCc1ccc(CCC(CCCc2ccc(S(=O)(=O)Nc3ccccc3)cc2)C(=O)O)cc1 (stereo not shown) ... Criterion met

Exercise: Determine if O=C(O)C(CCCc1ccccc1)CCc1ccc(OCc2ccccc2)cc1 (stereo not shown) shows EC50 strictly lower than 200 µM.
Key: Criterion met

Exercise: Determine if CNS(=O)(=O)c1cccc(CCCC(CCc2ccccc2)C(=O)OCOC(C)=O)c1 (stereo not shown) shows EC50 strictly lower than 200 µM.
Key: Criterion met

Exercise: Determine if COc1ccc(NS(=O)(=O)c2cccc(CCCC(CCc3ccccc3)C(=O)O)c2)cc1OC (stereo not shown) shows EC50 strictly lower than 200 µM.
Key: Criterion not met

Exercise: Determine if Cc1ccc(NS(=O)(=O)c2cccc(CCCC(CCc3ccccc3)C(=O)O)c2)cc1 (stereo not shown) shows EC50 strictly lower than 200 µM.
Key: Criterion met

###

- Test system: T98G (glioblastoma)
- procedure_text: alamarBlue viability assay, T98G
- Format: cell-based
- experimental_conditions: Homo sapiens, 72 hours
experimental_endpoint: EC50

Cc1ccc(NS(=O)(=O)c2cccc(CCCC(CCc3ccccc3)C(=O)O)c2)cc1 (centres unmarked) ... 118 µM

Input CCc1ccc(CCC(CCCc2ccc(S(=O)(=O)Nc3ccccc3)cc2)C(=O)O)cc1 (centres unmarked) . Output EC50: 118 µM

###

- target_of_assay: human recombinant HDAC 2 (Homo sapiens, UniProt Q92769)
- procedure_text: HDAC inhibition assay (Fluor de Lys), HDAC2
- experimental_conditions: inhibitor-protein incubation 2 hours, reaction 1 h 30 min, 37° C.
experimental_endpoint: IC50

# return IC50 for each item in the list
1. O=C(O)C(CCCc1ccccc1)CCc1ccc(OCc2ccccc2)cc1 (stereo not drawn)
2. Cc1ccc(NS(=O)(=O)c2cccc(CCCC(CCc3ccccc3)C(=O)O)c2)cc1 (stereo not drawn)

Key:
1: 10 to 100 µM; 2: 10 to 100 µM

###

- target_of_assay: human recombinant HDAC 2 (Homo sapiens, UniProt Q92769)
- procedure_text: HDAC inhibition assay (Fluor de Lys), HDAC2
- experimental_conditions: inhibitor-protein incubation 2 hours, reaction 1 h 30 min, 37° C.
experimental_endpoint: IC50

# return IC50 for each item in the list
1. CCc1ccc(CCC(CCCCc2ccccc2)C(=O)O)cc1 (stereo not drawn)
2. O=C(O)C(CCCc1ccccc1)CCc1ccc(Oc2ccccc2)cc1 (stereo not drawn)
3. O=C(O)C(CCCc1ccccc1)CCc1ccc(-c2ccco2)cc1 (stereo not drawn)
4. O=C(O)C(CCCc1ccccc1)CCc1ccc(-c2ccsc2)cc1 (stereo not drawn)
5. O=C(O)C(CCCc1ccccc1)CCc1ccc(Oc2ccc(F)cc2)cc1 (stereo not drawn)
6. O=C(O)C(CCCc1ccccc1)CCc1ccccc1 (stereo not drawn)

Key:
1: 10 to 100 µM; 2: 100 to 1000 µM; 3: 100 to 1000 µM; 4: 100 to 1000 µM; 5: 100 to 1000 µM; 6: 100 to 1000 µM
